Measured Conversion % to parent compound by purified CD26, 24 h, listed per entry for reference.
target: purified CD26 (Homo sapiens); construct: made in house; assay: Conversion of peptide prodrugs to parent compound by purified CD26 (HPLC); assay type: biochemical; conditions: Table 1; purified CD26 1.5 mUnits; 24 h
Sequence (P27487 whole entry): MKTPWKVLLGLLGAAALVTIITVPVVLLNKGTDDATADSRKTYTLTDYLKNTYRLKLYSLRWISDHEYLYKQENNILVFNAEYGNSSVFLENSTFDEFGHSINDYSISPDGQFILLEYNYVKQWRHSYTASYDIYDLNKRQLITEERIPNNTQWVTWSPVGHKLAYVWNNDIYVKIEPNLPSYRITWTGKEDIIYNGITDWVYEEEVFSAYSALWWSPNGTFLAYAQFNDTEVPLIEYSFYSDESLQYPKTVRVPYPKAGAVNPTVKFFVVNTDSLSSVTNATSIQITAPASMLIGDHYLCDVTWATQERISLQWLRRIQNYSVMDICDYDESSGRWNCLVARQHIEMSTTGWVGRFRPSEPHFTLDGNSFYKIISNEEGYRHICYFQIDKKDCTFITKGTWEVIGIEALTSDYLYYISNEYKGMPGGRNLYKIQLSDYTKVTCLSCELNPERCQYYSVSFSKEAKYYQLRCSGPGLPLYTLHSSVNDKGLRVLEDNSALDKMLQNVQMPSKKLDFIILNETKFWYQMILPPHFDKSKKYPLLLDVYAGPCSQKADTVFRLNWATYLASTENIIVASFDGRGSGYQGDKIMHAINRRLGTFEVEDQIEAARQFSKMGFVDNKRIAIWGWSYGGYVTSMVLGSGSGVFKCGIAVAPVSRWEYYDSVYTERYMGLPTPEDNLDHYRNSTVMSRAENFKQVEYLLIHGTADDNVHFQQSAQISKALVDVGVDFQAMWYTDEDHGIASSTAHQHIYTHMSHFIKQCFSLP

COMPOUND	RESULT
Cc1cn(C2OC(CO[Si](C)(C)C(C)(C)C)C3(OS(=O)(=O)C=C3N)C2O[Si](C)(C)C(C)(C)C)c(=O)n(CCCNC(=O)C(NC(=O)C2CCCN2C(=O)C(N)C(C)C)C(C)C)c1=O (centres unmarked)	~70%

Consider now this further compound.
# Conversion % to parent compound by purified CD26, 24 h measured on purified CD26 (Homo sapiens) for item Cc1cn(C2OC(CO[Si](C)(C)C(C)(C)C)C3(OS(=O)(=O)C=C3N)C2O[Si](C)(C)C(C)(C)C)c(=O)n(CCCNC(=O)C(CC(C)C)NC(=O)C(N)C(C)C)c1=O (centres unmarked) = 0%
